Every entry's value here was drawn from paper PMC6616128.

Molecular target: AKR1C1 (Homo sapiens)
Assay: Enzyme activity (NADPH) assay with s-tetralol, recombinant GST-AKR1C1
Type: biochemical
Set-up: made in house; host or cells: Escherichia coli JM109
Settings: 2 μM compound; Supplementary Table 1; read-out: % inhibition
measured.property: inhibition at 2 µM (%)
Number in %, nothing else.

Examples with answers:
{"columns": ["compound", "measured.on", "reading.unit", "inhibition at 2 µM"],
 "data": [
  ["CC1(C)O[C@H]1COc1c2ccoc2cc2oc(=O)ccc12", "AKR1C1 (Homo sapiens)", "%", -0.05],
  ["O=C1C[C@@H](c2ccc(O[C@@H]3O[C@H](CO)[C@@H](O)[C@H](O)[C@H]3O)cc2)Oc2cc(O)ccc21", "AKR1C1 (Homo sapiens)", "%", 69],
  ["COc1ccc(-c2cc(=O)c3c(OC)c(OC)c(OC)c(OC)c3o2)cc1", "AKR1C1 (Homo sapiens)", "%", -8.85],
  ["COc1cc(-c2oc3cc(O)cc(O)c3c(=O)c2O)ccc1O", "AKR1C1 (Homo sapiens)", "%", -2.46],
  ["CC(C)=CC[C@@H](O)C1=CC(=O)c2c(O)ccc(O)c2C1=O", "AKR1C1 (Homo sapiens)", "%", -9.44],
  ["O=c1c(-c2ccc(O)cc2)coc2cc(O[C@@H]3O[C@H](CO)[C@@H](O)[C@H](O)[C@H]3O)ccc12", "AKR1C1 (Homo sapiens)", "%", -6.6],
  ["Oc1cc(O)c2c(c1)O[C@H](c1cc(O)c(O)c(O)c1)[C@H](O)C2 [Epigallocatechin]", "AKR1C1 (Homo sapiens)", "%", -7.45]
]}

The value of inhibition at 2 µM measured for the compound `COc1c2ccoc2cc2oc(=O)ccc12` turned out to be 1.12

---

Target: AKR1C1 (Homo sapiens, UniProt Q04828)
Sequence (Q04828 1-323): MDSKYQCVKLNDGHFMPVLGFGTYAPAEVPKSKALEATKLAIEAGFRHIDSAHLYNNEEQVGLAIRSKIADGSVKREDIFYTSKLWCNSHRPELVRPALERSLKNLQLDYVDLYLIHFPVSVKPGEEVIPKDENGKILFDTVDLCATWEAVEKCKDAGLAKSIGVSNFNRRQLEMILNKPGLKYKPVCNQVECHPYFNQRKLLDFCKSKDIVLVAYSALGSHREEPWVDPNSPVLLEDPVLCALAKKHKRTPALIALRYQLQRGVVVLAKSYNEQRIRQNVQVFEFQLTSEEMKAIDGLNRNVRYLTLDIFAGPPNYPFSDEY
Test: Enzyme activity (NADPH) assay with s-tetralol, recombinant GST-AKR1C1
Assay type: biochemical
Set-up: made in house; host or cells: Escherichia coli JM109
Details: 2 μM compound; Supplementary Table 1; CON = 1; read-out: ratio (activity relative to CON)
Rule for this label: YES means remaining activity at 2 µM is less than 90%; NO means remaining activity at 2 µM is at least 90%.

The examples below pair each entry with its known result.
{"columns": ["molecule", "class"],
 "data": [
  ["O=c1c(O[C@@H]2O[C@H](CO)[C@@H](O)[C@H](O)[C@H]2O)c(-c2ccc(O)c(O)c2)oc2cc(O)cc(O)c12 [Isoquercitrin]", "YES"],
  ["O=c1c(O)c(-c2ccccc2)oc2cc(O)cc(O)c12 [3,5,7-Trihydroxyflavone]", "YES"]
]}

hey, is remaining activity at 2 µM for Oc1cc(O)c2c(c1)O[C@H](c1ccc(O)c(O)c1)[C@H](O)C2 [Epicatechin] lower than 90% or not? NO

hey, is remaining activity at 2 µM for CC(C)=CCOc1c2occc2cc2ccc(=O)oc12 [Imperatorin] lower than 90% or not? NO

hey, is remaining activity at 2 µM for O=C(O[C@@H]1Cc2c(O)cc(O)cc2O[C@@H]1c1cc(O)c(O)c(O)c1)c1cc(O)c(O)c(O)c1 [(−)-Epigallocatechin gallate] lower than 90% or not? NO

hey, is remaining activity at 2 µM for O=c1ccc2cc3ccoc3cc2o1 [Psoralen] lower than 90% or not? NO

hey, is remaining activity at 2 µM for COc1ccc2c(c1)CC=C(CO)c1cc3c(cc1-2)OCO3 [Tenuifolin] lower than 90% or not? YES

hey, is remaining activity at 2 µM for COc1ccc(-c2cc(=O)c3c(OC)c(OC)c(OC)c(OC)c3o2)cc1OC [Nobiletin] lower than 90% or not? NO

hey, is remaining activity at 2 µM for COc1cc2c(=O)c(-c3ccc(O)cc3)coc2cc1O [Glycitein] lower than 90% or not? YES

hey, is remaining activity at 2 µM for O=c1c2cc(O)c(O)cc2oc2cc(O)c([C@@H]3O[C@H](CO)[C@@H](O)[C@H](O)[C@H]3O)c(O)c12 [Mangiferin] lower than 90% or not? YES

hey, is remaining activity at 2 µM for C[C@@H]1C(=O)O[C@H]2C[C@@]34[C@H]5C[C@@H](C(C)(C)C)[C@]36[C@@H](OC(=O)[C@@H]6O)O[C@@]4(C(=O)O5)[C@]21O [Ginkgolide A] lower than 90% or not? YES

hey, is remaining activity at 2 µM for COc1c2ccoc2cc2oc(=O)ccc12 [5-Methoxypsoralen] lower than 90% or not? NO

hey, is remaining activity at 2 µM for C[C@@H]1O[C@@H](Oc2c(-c3ccc(O)c(O)c3)oc3cc(O)cc(O)c3c2=O)[C@H](O)[C@H](O)[C@H]1O [Quercitrin] lower than 90% or not? NO

hey, is remaining activity at 2 µM for Oc1cc(O)c2c(c1)O[C@H](c1cc(O)c(O)c(O)c1)[C@H](O)C2 [Epigallocatechin] lower than 90% or not? NO

hey, is remaining activity at 2 µM for COc1ccc(-c2oc3cc(O)cc(O)c3c(=O)c2O)cc1 [Kaempferide] lower than 90% or not? NO

hey, is remaining activity at 2 µM for COc1cc2c(cc1CC=C(C)C)C(=O)C[C@@H](c1ccc(O)cc1)O2 [Bavachinin A] lower than 90% or not? YES

---

Target: AKR1C1 (Homo sapiens, UniProt Q04828)
Assay: Enzyme activity (NADPH) assay with s-tetralol, recombinant GST-AKR1C1
Format: biochemical
Set-up: made in house; host or cells: Escherichia coli JM109
Settings: 2 μM compound; Supplementary Table 1; CON 192.295568
Measured enzyme activity, listed per entry for reference.
Number in nmol/min/mg, nothing else.

{"columns": ["compound", "measured.property", "observed.measurement"],
 "data": [
  ["COc1cc2c(cc1CC=C(C)C)C(=O)C[C@@H](c1ccc(O)cc1)O2", "enzyme activity", 145.0548],
  ["CC(C)(C)[C@]1(O)CC2OC(=O)CC23C(=O)OC2OC(=O)[C@H](O)C231 (some centres unmarked) [Bilobalide]", "enzyme activity", 120.151],
  ["CC(C)=CCC[C@](C)(O[C@@H]1O[C@H](CO)[C@@H](O)[C@H](O)[C@H]1O)[C@H]1CC[C@]2(C)[C@@H]1[C@H](O)C[C@@H]1[C@@]3(C)CC[C@H](O)C(C)(C)[C@@H]3CC[C@]12C [Ginsenoside CK]", "enzyme activity", 193.3764],
  ["COc1ccc2c(c1)CC=C(CO)c1cc3c(cc1-2)OCO3", "enzyme activity", 113.7111]
]}

Record for `COc1ccc2cc1Oc1ccc(cc1)C[C@H]1c3cc(c(OC)cc3CCN1C)Oc1c(O)c(OC)cc3c1[C@H](C2)N(C)CC3` under target or system AKR1C1 (Homo sapiens, UniProt Q04828): enzyme activity reported as 219.4962

Record for `COc1ccc(-c2coc3cc(O)ccc3c2=O)cc1O` under target or system AKR1C1 (Homo sapiens, UniProt Q04828): enzyme activity reported as 183.0185

Record for `C[C@@H]1O[C@@H](Oc2c(-c3ccc(O)c(O)c3)oc3cc(O)cc(O)c3c2=O)[C@H](O)[C@H](O)[C@H]1O` under target or system AKR1C1 (Homo sapiens, UniProt Q04828): enzyme activity reported as 180.0013

Record for `C[C@@H]1CC[C@@]2(OC1)O[C@H]1C[C@H]3[C@@H]4CC=C5C[C@@H](O[C@@H]6O[C@H](CO)[C@@H](O[C@@H]7O[C@@H](C)[C@H](O)[C@@H](O)[C@H]7O)[C@H](O)[C@H]6O[C@@H]6O[C@@H](C)[C@H](O)[C@@H](O)[C@H]6O)CC[C@]5(C)[C@H]4CC[C@]3(C)[C@H]1[C@@H]2C` under target or system AKR1C1 (Homo sapiens, UniProt Q04828): enzyme activity reported as 211.8854

---

Target: AKR1C1 (Homo sapiens)
Assay: Enzyme activity (NADPH) assay with s-tetralol, recombinant GST-AKR1C1;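 further: GST-fused AKR1C1 expressed in E. coli and purified by glutathione affinity, control wells received DMSO instead of compound, duplicate samples from a single experiment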
Assay type: biochemical
Design: made in house; host or cells: Escherichia coli JM109
Conditions: 2 μM compound; Supplementary Table 1; CON 192.295568
measured.property: enzyme activity (nmol/min/mg)
Number in nmol/min/mg, nothing else.

Examples with answers:
{"columns": ["compound", "reading.unit", "enzyme activity"],
 "data": [
  ["O=C(O[C@@H]1Cc2c(O)cc(O)cc2O[C@@H]1c1ccc(O)c(O)c1)c1cc(O)c(O)c(O)c1 [(−)-Epicatechin gallate]", "nmol/min/mg", 110.6488],
  ["Oc1cc(O)c2c(c1)O[C@H](c1cc(O)c(O)c(O)c1)[C@H](O)C2 [(−)-Epigallocatechin]", "nmol/min/mg", 206.076],
  ["O=c1c2cc(O)c(O)cc2oc2cc(O)c([C@@H]3O[C@H](CO)[C@@H](O)[C@H](O)[C@H]3O)c(O)c12", "nmol/min/mg", 148.6125],
  ["COc1cc2c(c(OC)c1OC)-c1c(cc3c(c1OC)OCO3)CC(C)C(C)C2 (stereo not shown)", "nmol/min/mg", 238.2754],
  ["COc1cc2c(=O)c(-c3ccc(O)cc3)coc2cc1O", "nmol/min/mg", 135.5526],
  ["CC(C)=CCOc1c2occc2cc2ccc(=O)oc12", "nmol/min/mg", 184.7298]
]}

Consider the additional compound presented here.
Record for C[C@@H]1C(=O)O[C@H]2C[C@@]34[C@H]5C[C@@H](C(C)(C)C)[C@]36[C@@H](OC(=O)[C@@H]6O)O[C@@]4(C(=O)O5)[C@]21O [Ginkgolide A] under target or system AKR1C1 (Homo sapiens): enzyme activity reported as 132.4903
